Target: UniProt P21333
Assay: FITC-NLX-based FLNA screening assay (FLNA peptide binding assay)
Details: read-out: Percent inhibition of FITC-NLX binding, 0.01 μM
Where inhibition at 0.01 µM equals or exceeds 40%, the correct label is 1; where it does not, the label is -1.

# count of solved cases: 4
molecule	assayed_system	classification
OC(CN1CCc2ccccc2C1)OCc1ccc(Br)c(F)c1 (stereo not drawn)	UniProt P21333	-1
COc1ccc(OCC(O)CN2CCN(Cc3ccccc3)CC2)cc1 (stereo not drawn)	UniProt P21333	1
CC1CCC(C(C)C)C(OCC(O)CN2CCN(Cc3ccccc3)CC2)C1 (stereo not drawn)	UniProt P21333	1
CC1CCC(C(C)C)C(OCC(O)CN2CCc3ccccc32)C1 (stereo not drawn)	UniProt P21333	-1

Inquiry: Quick check, inhibition at 0.01 µM >= 40%? OC(COc1ccc(Br)c(F)c1)CN1CCN(CCN2CCOCC2)CC1 (stereo not drawn)
Reply text: -1

Inquiry: Quick check, inhibition at 0.01 µM >= 40%? COc1ccc(OCC(O)CN2CCc3ccccc32)cc1 (stereo not drawn)
Reply text: -1

====

Biological target: μ opiate receptor (MOR) (Rattus norvegicus)
Construct: from tissue; host or cells: striatal tissue (membrane preparation)
Sequence (P33535 whole entry): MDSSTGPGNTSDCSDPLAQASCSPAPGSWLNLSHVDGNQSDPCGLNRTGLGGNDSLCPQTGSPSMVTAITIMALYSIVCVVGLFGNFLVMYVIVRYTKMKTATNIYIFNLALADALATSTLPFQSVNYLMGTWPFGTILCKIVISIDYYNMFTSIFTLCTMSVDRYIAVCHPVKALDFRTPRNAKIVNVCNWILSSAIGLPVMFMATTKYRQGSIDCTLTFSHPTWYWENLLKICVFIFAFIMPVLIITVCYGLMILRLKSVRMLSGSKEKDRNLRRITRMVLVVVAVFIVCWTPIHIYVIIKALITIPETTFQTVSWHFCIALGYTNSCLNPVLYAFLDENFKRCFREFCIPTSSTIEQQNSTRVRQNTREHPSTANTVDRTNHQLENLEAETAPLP
Test: MOR agonist activity, [35S]GTPγS binding assay using striatal membranes
Type: biochemical
Conditions: 1 μM compound + 1 μM β-funaltrexamine
endpoint_label: [35S]GTPγS binding to Gαo, FLNA-binding compound as agonist 1 μM + BFNA (%)
Please respond with the number in % and leave the unit unwritten.

Use these answered entries as a reference point.
molecule	experimental_value
CC1CCC(C(C)C)C(OCC(O)CN2CCCCC2C)C1 (centres unmarked) [Compound A0007]	40.4
COc1ccc(N2CCN(CC(O)COC3CC(C)CCC3C(C)C)CC2)c(OC)c1 (centres unmarked) [Compound A0012]	122.4
COc1ccc(OCC(O)CN2CCOc3ccccc32)cc1 (centres unmarked) [Compound A0076]	41.2
CC1CCC(C(C)C)C(OCC(O)CN2CCc3ccccc3C2)C1 (centres unmarked) [Compound A0040]	16.7

Attention now shifts to the item below.
Inquiry: Hi! What's the reported [35S]GTPγS binding to Gαo, FLNA-binding compound as agonist 1 μM + BFNA for COc1ccc(OCC(O)CN2CCCc3ccccc32)cc1 (centres unmarked) [Compound A0067] on μ opiate receptor (MOR) (Rattus norvegicus)?
Reply text: 33.9

====

Target: Bn-VAKGL pentapeptide of filamin A (FLNA) (Homo sapiens)
Test: FITC-NLX-based FLNA screening assay (FLNA peptide binding assay)
Conditions: read-out: Percent inhibition of FITC-NLX binding, 0.1 μM, 0.1 μM compound, 10 nM FITC-NLX
endpoint_label: inhibition at 0.1 µM (%)
Please respond with the number in % and leave the unit unwritten.

Use these answered entries as a reference point.
molecule	unit_symbol	inhibition at 0.1 µM
COc1ccc(OCC(O)CN2CCCc3ccccc32)cc1 (stereo not drawn)	%	39.1
COc1ccc(OCC(O)CN2CCc3cc4c(c(OC)c3C2)OCO4)cc1 (stereo not drawn)	%	39.1
OC(COc1ccccc1Br)CN1CCN(CCN2CCOCC2)CC1 (stereo not drawn)	%	46.2
CC1CCC(C(C)C)C(OCC(O)CN2CCOc3ccccc32)C1 (stereo not drawn)	%	45.4
COc1ccc(OCC(O)CN2CCC(=O)CC2)cc1 (stereo not drawn)	%	46.8

Attention now shifts to the item below.
Inquiry: Hi! What's the reported inhibition at 0.1 µM for CC1CN(CC(O)COc2ccccc2C(C)C)CC(C)O1 (stereo not drawn) on Bn-VAKGL pentapeptide of filamin A (FLNA) (Homo sapiens)?
Reply text: 44.4
